# Tested on: PDC KRAS tumor spheroids with HUVEC/MSC, viability;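 note: spheroids exposed to compounds for seven days before readout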
# method: Anticancer human tumor 349418-098-R-PDC patient-derived lung adenocarcinoma cell line growth inhibition [KRAS2]
# protocol_conditions: second compound 0.1 µM; first compound 1 µM; hits give low values
measured_property: viability, T/C (%)

1. Cn1nccc1Nc1nccc(-c2cc3c(s2)C(C)(C)N(CCN2CCOCC2)C3=O)n1 + C=CC(=O)N1CCN(c2nc(=O)n(-c3c(C)ccnc3C(C)C)c3nc(-c4c(O)cccc4F)c(F)cc23)C(C)C1 | 13.3
2. CC(=O)OC12COC1CC(O)C1(C)C(=O)C(O)C3=C(C)C(OC(=O)C(O)C(NC(=O)OC(C)(C)C)c4ccccc4)CC(O)(C(OC(=O)c4ccccc4)C21)C3(C)C (stereo not drawn) + COc1cc2nc(C)nc(NC(C)c3cc(N)cc(C(F)(F)F)c3)c2cc1OC1CCOC1 | 27.4
3. CC(C)NCC(C(=O)N1CCN(c2ncnc3c2C(C)CC3O)CC1)c1ccc(Cl)cc1 (stereo not drawn) + C=CC(=O)N1CCN(c2nc(=O)n(-c3c(C)ccnc3C(C)C)c3nc(-c4c(O)cccc4F)c(F)cc23)C(C)C1 | 26.6
4. COC(=O)c1ccc2c(C(=Nc3ccc(N(C)C(=O)CN4CCN(C)CC4)cc3)c3ccccc3)c(O)[nH]c2c1 + COc1cc2nc(C)nc(NC(C)c3cc(N)cc(C(F)(F)F)c3)c2cc1OC1CCOC1 | 78.8
5. CCNC(=O)CC1N=C(c2ccc(Cl)cc2)c2cc(OC)ccc2-n2c(C)nnc21 (stereo not drawn) + C=CC(=O)N1CCN(c2nc(OCC3CCCN3C)nc3c2CCN(c2cccc4cccc(C)c24)C3)CC1CC#N | 9.94
6. COc1cc(Nc2ncc3c(n2)-c2ccc(Cl)cc2C(c2c(F)cccc2OC)=NC3)ccc1C(=O)O + CNCc1ccccc1-c1csc(C(C)Nc2nc(C)nc3cc(OC)c(OC)cc23)c1 | 36.7
7. COc1cc(Nc2ncc3c(n2)-c2ccc(Cl)cc2C(c2c(F)cccc2OC)=NC3)ccc1C(=O)O + C=CC(=O)N1CCN(c2nc(=O)n(-c3c(C)ccnc3C(C)C)c3nc(-c4c(O)cccc4F)c(F)cc23)C(C)C1 | 42.2
8. COc1cc2nccc(Oc3ccc(NC(=O)C4(C(=O)Nc5ccc(F)cc5)CC4)cc3)c2cc1OC + CC1OCC2(CCN(c3cnc(Sc4ccnc(N)c4Cl)c(N)n3)CC2)C1N | 78.6
9. COc1cc(Nc2ncc3c(n2)-c2ccc(Cl)cc2C(c2c(F)cccc2OC)=NC3)ccc1C(=O)O + COc1cc2nc(C)nc(NC(C)c3cc(N)cc(C(F)(F)F)c3)c2cc1OC1CCOC1 | 34.2
10. CCNC(=O)CC1N=C(c2ccc(Cl)cc2)c2cc(OC)ccc2-n2c(C)nnc21 (stereo not drawn) + CNCc1ccccc1-c1csc(C(C)Nc2nc(C)nc3cc(OC)c(OC)cc23)c1 | 12.4
11. CC1COCCN1c1cc(-c2ccnn2C)c2ccnc(-c3ccn[nH]3)c2n1 (stereo not drawn) + C=CC(=O)N1CCN(c2nc(=O)n(-c3c(C)ccnc3C(C)C)c3nc(-c4c(O)cccc4F)c(F)cc23)C(C)C1 | 4.48
12. CC1(C)CCC(CN2CCN(c3ccc(C(=O)NS(=O)(=O)c4ccc(NCC5CCOCC5)c([N+](=O)[O-])c4)c(Oc4cnc5[nH]ccc5c4)c3)CC2)=C(c2ccc(Cl)cc2)C1 + CC1OCC2(CCN(c3cnc(Sc4ccnc(N)c4Cl)c(N)n3)CC2)C1N | 89.1
13. CC1COCCN1c1cc(-c2ccnn2C)c2ccnc(-c3ccn[nH]3)c2n1 (stereo not drawn) + CNCc1ccccc1-c1csc(C(C)Nc2nc(C)nc3cc(OC)c(OC)cc23)c1 | 5.04
14. CC(=O)OC12COC1CC(O)C1(C)C(=O)C(O)C3=C(C)C(OC(=O)C(O)C(NC(=O)OC(C)(C)C)c4ccccc4)CC(O)(C(OC(=O)c4ccccc4)C21)C3(C)C (stereo not drawn) + CC1OCC2(CCN(c3cnc(Sc4ccnc(N)c4Cl)c(N)n3)CC2)C1N | 28.7
15. COC(=O)c1ccc2c(C(=Nc3ccc(N(C)C(=O)CN4CCN(C)CC4)cc3)c3ccccc3)c(O)[nH]c2c1 + C=CC(=O)N1CCN(c2nc(=O)n(-c3c(C)ccnc3C(C)C)c3nc(-c4c(O)cccc4F)c(F)cc23)C(C)C1 | 26.5
16. CC1(C)CCC(CN2CCN(c3ccc(C(=O)NS(=O)(=O)c4ccc(NCC5CCOCC5)c([N+](=O)[O-])c4)c(Oc4cnc5[nH]ccc5c4)c3)CC2)=C(c2ccc(Cl)cc2)C1 + C=CC(=O)N1CCN(c2nc(=O)n(-c3c(C)ccnc3C(C)C)c3nc(-c4c(O)cccc4F)c(F)cc23)C(C)C1 | 85.1
17. CCNC(=O)CC1N=C(c2ccc(Cl)cc2)c2cc(OC)ccc2-n2c(C)nnc21 (stereo not drawn) + COc1cc2nc(C)nc(NC(C)c3cc(N)cc(C(F)(F)F)c3)c2cc1OC1CCOC1 | 7.27
18. COc1cc2nccc(Oc3ccc(NC(=O)C4(C(=O)Nc5ccc(F)cc5)CC4)cc3)c2cc1OC + CNCc1ccccc1-c1csc(C(C)Nc2nc(C)nc3cc(OC)c(OC)cc23)c1 | 73.3
